What MIC was measured for each of the following?
Could you give the number and then its unit, please?

Identify the measured MIC of CC[C@H](C)[C@H](NC(=O)[C@H](CC(C)C)NC(=O)[C@H](CC(C)C)NC(=O)[C@@H](N)CC(C)C)C(=O)N[C@@H](C)C(=O)N[C@@H](CC(C)C)C(=O)N[C@@H](CCCN=C(N)N)C(=O)N[C@@H](CCCCN)C(=O)N[C@@H](CCCCN)C(N)=O [LLLIALRKK] for Escherichia coli KCTC 1682.
3.75 µM

Identify the measured MIC of CC[C@H](C)[C@H](NC(=O)[C@H](CCCN=C(N)N)NC(=O)[C@H](CC(C)C)NC(=O)[C@H](CC(C)C)NC(=O)[C@@H](N)CCCN=C(N)N)C(=O)N[C@@H](Cc1c[nH]c2ccccc12)C(=O)N[C@@H](Cc1c[nH]c2ccccc12)C(=O)N[C@H](C(=O)N[C@@H](CCCN=C(N)N)C(=O)N[C@H](C(=O)N[C@@H](CC(C)C)C(=O)N[C@@H](CCCN=C(N)N)C(N)=O)C(C)C)[C@@H](C)CC [RLLRIWWIRVLR] for Escherichia coli KCTC 1682.
14.9 µM

Identify the measured MIC of CC[C@H](C)[C@H](NC(=O)[C@H](CCCCN)NC(=O)[C@H](CCCCN)NC(=O)[C@H](Cc1ccccc1)NC(=O)[C@H](CC(C)C)NC(=O)[C@H](CCCCN)NC(=O)[C@H](C)NC(=O)[C@@H](N)CCCCN)C(=O)N1CCC[C@H]1C(=O)N[C@@H](CCCCN)C(=O)N[C@@H](Cc1ccccc1)C(=O)N[C@@H](CC(C)C)C(=O)N[C@@H](Cc1cnc[nH]1)C(=O)N[C@@H](CC(C)C)C(=O)N[C@@H](Cc1c[nH]c2ccccc12)C(=O)N[C@@H](CCCCN)C(=O)N[C@@H](CCCCN)C(=O)N[C@@H](Cc1ccccc1)C(N)=O [KAKLFKKIPKFLHLWKKF] for Escherichia coli KCTC 1682.
2 µM

Identify the measured MIC of CC[C@H](C)[C@@H]1NC(=O)[C@H](CCCN=C(N)N)NC(=O)[C@@H](NC(=O)[C@H](CC(C)C)NC(=O)[C@@H](N)CCCN=C(N)N)CSSC[C@@H](C(=O)N[C@@H](CCCN=C(N)N)C(=O)O)NC(=O)[C@H](Cc2c[nH]c3ccccc23)NC(=O)[C@H](CCCN=C(N)N)NC(=O)[C@H]([C@@H](C)CC)NC(=O)[C@H](Cc2c[nH]c3ccccc23)NC(=O)[C@H](Cc2c[nH]c3ccccc23)NC1=O [RLCRIWWIRWCR] for Escherichia coli KCTC 1682.
2.83 µM

Identify the measured MIC of CC[C@H](C)[C@H](NC(=O)[C@H](CC(C)C)NC(=O)[C@H](CCCCN)NC(=O)[C@@H](NC(=O)[C@@H](NC(=O)[C@H](CCCN=C(N)N)NC(=O)[C@@H](N)CC(C)C)[C@@H](C)CC)C(C)C)C(=O)N[C@@H](CC(C)C)C(=O)N[C@@H](CCCCN)C(=O)N[C@@H](Cc1c[nH]c2ccccc12)C(=O)N[C@@H](CC(C)C)C(=O)N[C@@H](CCCN=C(N)N)C(N)=O [LRIVKLILKWLR] for Escherichia coli KCTC 1682.
16 µM

Identify the measured MIC of CC[C@H](C)[C@H](N)C(=O)N[C@@H](CC(C)C)C(=O)N[C@@H](CCCCN)C(=O)N[C@@H](Cc1c[nH]c2ccccc12)C(=O)N[C@@H](CCCCN)C(=O)N[C@@H](Cc1c[nH]c2ccccc12)C(=O)N[C@@H](CCCCN)C(=O)N[C@@H](Cc1c[nH]c2ccccc12)C(=O)N[C@@H](Cc1c[nH]c2ccccc12)C(=O)N1CCC[C@H]1C(=O)N[C@@H](Cc1c[nH]c2ccccc12)C(=O)N[C@@H](CCCN=C(N)N)C(=O)N[C@@H](CCCN=C(N)N)C(N)=O [ILKWKWKWWPWRR] for Escherichia coli KCTC 1682.
5.08 µM

Identify the measured MIC of CC(C)C[C@H](NC(=O)[C@H](CC(C)C)NC(=O)[C@H](CS)NC(=O)[C@H](Cc1cnc[nH]1)NC(=O)[C@H](C)NC(=O)[C@H](C)N)C(=O)N[C@@H](CCCN=C(N)N)C(=O)NCC(=O)N[C@@H](CC(N)=O)C(=O)N[C@@H](CCCN=C(N)N)C(N)=O [AAHCLLRGNR] for Escherichia coli KCTC 1682.
15 µM

---

observation type: MIC

Identify the measured MIC of CC[C@H](C)[C@H](NC(=O)CN)C(=O)N[C@@H](Cc1cnc[nH]1)C(=O)N[C@@H](CC(=O)O)C(=O)N[C@H](C(=O)N[C@@H](CC(C)C)C(=O)N[C@@H](CCCCN)C(=O)N[C@@H](C)C(=O)NCC(=O)N[C@@H](CCCCN)C(=O)N1CCC[C@H]1C(=O)N[C@@H](CO)C(N)=O)[C@@H](C)CC for Klebsiella pneumoniae ATCC 10031.
20 µM

Identify the measured MIC of CC[C@H](C)[C@H](NC(=O)[C@H](CC(C)C)NC(=O)[C@@H](N)Cc1ccccc1)C(=O)NCC(=O)N[C@@H](CCSC)C(=O)N[C@H](C(=O)N[C@@H](Cc1cnc[nH]1)C(=O)NCC(=O)N[C@@H](CC(C)C)C(=O)N[C@H](C(=O)N[C@H]1CSSC[C@@H](C(=O)O)NC(=O)[C@H](CCCCN)NC(=O)[C@H](CCCN=C(N)N)NC(=O)[C@H](CO)NC(=O)[C@H]([C@@H](C)CC)NC(=O)[C@H](CC(C)C)NC1=O)[C@@H](C)CC)[C@@H](C)O for Klebsiella pneumoniae ATCC 10031.
≥ 52.5 µM

Identify the measured MIC of C[C@H](NC(=O)[C@H](Cc1c[nH]c2ccccc12)NC(=O)[C@H](CCCCN)NC(=O)[C@H](C)NC(=O)[C@@H](N)Cc1ccccc1)C(=O)N[C@@H](Cc1ccccc1)C(=O)N[C@@H](CCCCN)C(=O)N[C@@H](Cc1c[nH]c2ccccc12)C(=O)N[C@@H](C)C(=O)N[C@@H](CCCCN)C(=O)N[C@@H](CCCCN)C(N)=O for Klebsiella pneumoniae ATCC 10031.
≥ 142 µM

Identify the measured MIC of CC(C)C[C@H](NC(=O)[C@H](Cc1c[nH]c2ccccc12)NC(=O)[C@H](CCCCN)NC(=O)[C@H](CC(C)C)NC(=O)[C@H](CC(C)C)NC(=O)[C@H](Cc1c[nH]c2ccccc12)NC(=O)[C@H](CCCCN)NC(=O)[C@H](CC(C)C)NC(=O)[C@@H](N)CC(C)C)C(=O)N[C@@H](CCCCN)C(=O)N[C@@H](CCCCN)C(N)=O for Klebsiella pneumoniae ATCC 10031.
13.6 µM

Identify the measured MIC of CC[C@H](C)[C@H](NC(=O)[C@H](C)N)C(=O)N[C@@H](Cc1cnc[nH]1)C(=O)N[C@@H](CC(=O)O)C(=O)N[C@H](C(=O)N[C@@H](CC(C)C)C(=O)N[C@@H](CCCCN)C(=O)N[C@@H](Cc1ccc(O)cc1)C(=O)NCC(=O)N[C@@H](CCCCN)C(=O)N1CCC[C@H]1C(=O)N[C@@H](CO)C(N)=O)[C@@H](C)CC for Klebsiella pneumoniae ATCC 10031.
≥ 50 µM

Identify the measured MIC of CC(C)C[C@H](NC(=O)[C@@H](N)Cc1c[nH]c2ccccc12)C(=O)N[C@@H](CCCCN)C(=O)N[C@@H](CCCCN)C(=O)N[C@@H](Cc1c[nH]c2ccccc12)C(N)=O for Klebsiella pneumoniae ATCC 10031.
≥ 105 µM

---

# Tested on: Bacillus subtilis ATCC 6633
# assay comment: ≥ marks a high value that may be exact or a test limit, other limits are often not marked, values filed in µg/mL are converted to µM
observation type: MIC (µM)
Express the result in µM but write the number alone.

Field request: MIC | item: CC(C)C[C@H](NC(=O)[C@H](Cc1c[nH]c2ccccc12)NC(=O)[C@H](CCCCN)NC(=O)[C@H](CC(C)C)NC(=O)[C@H](CC(C)C)NC(=O)[C@H](Cc1c[nH]c2ccccc12)NC(=O)[C@@H](N)CCCCN)C(N)=O
20.3

Field request: MIC | item: CC(C)C[C@H](NC(=O)[C@H](CC(C)C)NC(=O)[C@H](CCCCN)NC(=O)[C@H](CCCCN)NC(=O)[C@H](CC(C)C)NC(=O)[C@H](Cc1c[nH]c2ccccc12)NC(=O)[C@H](CCCCN)NC(=O)[C@H](CC(C)C)NC(=O)[C@H](CC(C)C)NC(=O)[C@@H](N)CCCCN)C(=O)N[C@@H](CCCCN)C(N)=O
1.42

---

What MIC was measured for each of the following?

Identify the measured MIC of CC(C)C[C@H](NC(=O)[C@H](C)NC(=O)CNC(=O)[C@H](CC(C)C)NC(=O)[C@@H](N)Cc1ccccc1)C(=O)N[C@@H](Cc1ccccc1)C(=O)N[C@@H](CCCCN)C(=O)N[C@H](C(=O)N[C@@H](C)C(=O)N[C@@H](Cc1c[nH]c2ccccc12)C(=O)N[C@@H](CCCCN)C(=O)O)C(C)C for Salmonella typhimurium.
≥ 156 µM

Identify the measured MIC of CC(C)C[C@H](NC(=O)[C@H](C)NC(=O)CNC(=O)[C@H](CC(C)C)NC(=O)[C@@H](N)Cc1ccccc1)C(=O)N[C@@H](Cc1ccccc1)C(=O)N[C@@H](CCCCN)C(=O)N[C@H](C(=O)N[C@@H](Cc1c[nH]c2ccccc12)C(=O)N[C@@H](CO)C(=O)N[C@@H](CCCCN)C(=O)O)C(C)C for Salmonella typhimurium.
≥ 154 µM

Identify the measured MIC of CC(C)C[C@H](NC(=O)[C@H](C)NC(=O)CNC(=O)[C@H](CC(C)C)NC(=O)[C@@H](N)Cc1ccccc1)C(=O)N[C@@H](Cc1ccccc1)C(=O)N[C@@H](CCCCN)C(=O)N[C@H](C(=O)N[C@@H](C)C(=O)N[C@@H](CO)C(=O)N[C@@H](CCCCN)C(=O)N[C@H](C(=O)O)C(C)C)C(C)C for Salmonella typhimurium.
≥ 156 µM

Identify the measured MIC of CC(C)C[C@H](NC(=O)[C@H](C)NC(=O)CN)C(=O)N[C@@H](Cc1ccccc1)C(=O)N[C@@H](CCCCN)C(=O)N[C@H](C(=O)N[C@@H](C)C(=O)N[C@@H](CO)C(=O)N[C@@H](CCCCN)C(=O)N[C@H](C(=O)N[C@@H](CC(C)C)C(=O)N1CCC[C@H]1C(=O)N[C@@H](CO)C(=O)O)C(C)C)C(C)C for Salmonella typhimurium.
≥ 152 µM

Identify the measured MIC of CC(C)C[C@H](NC(=O)CN)C(=O)N[C@@H](CCC(N)=O)C(=O)N[C@@H](Cc1ccccc1)C(=O)N1CCC[C@H]1C(=O)N[C@H](C(=O)NCC(=O)N[C@@H](CCCN=C(N)N)C(=O)N[C@H](C(=O)N[C@@H](Cc1cnc[nH]1)C(=O)N[C@@H](CCCN=C(N)N)C(=O)N[C@@H](CC(C)C)C(=O)N[C@@H](CC(C)C)C(=O)N[C@@H](CCCN=C(N)N)C(=O)N[C@@H](CCCCN)C(=O)O)C(C)C)C(C)C for Salmonella typhimurium.
1.13 µM
